tested on: ACHN renal; assay: NCI-60 one-dose screen, 48 h (100 = growth as untreated, 0 = no growth, -100 = all killed); conditions: 10 µM unless noted
This is part of a sample that, as a whole, favours compounds with a hit. Of some 83,000 tested, about 20% had one in any assay. Active and inactive are the calls of the source. The calls were made as follows: active = growth percent below 10; inactive = the rest.

[
  {
    "COMPOUND": "C/C=C/C1=CN2C(=O)c3cc(OC4OC(C)C(NC)C(C)(O)C4O)c(C)cc3N=C[C@@H]2C1 (stereo not given in full)",
    "growth": "-4.55% (active)"
  },
  {
    "COMPOUND": "CN(C)c1cccc2c(S(=O)(=O)/N=C(\\N)Nc3nc4ccccc4s3)cccc12",
    "growth": "84.2% (inactive)"
  },
  {
    "COMPOUND": "NC(=O)c1c(NC(=S)Nc2ccc(OC(F)(F)F)cc2)sc2c1CCC1(C2)OCCO1",
    "growth": "99.9% (inactive)"
  },
  {
    "COMPOUND": "COC(=O)c1cc(=O)nc(N/N=C/c2ccco2)s1",
    "growth": "104% (inactive)"
  },
  {
    "COMPOUND": "CC1=NC2=CC=CC3=NC(C(Cl)(Cl)Cl)=NC(=N1)N23",
    "growth": "61% (inactive)"
  },
  {
    "COMPOUND": "Cn1cc(-c2cnc3ccc(NC(=O)Nc4ccc(F)c(Br)c4)cc3n2)cn1",
    "growth": "20.2% (inactive)"
  },
  {
    "COMPOUND": "Fc1ccc(CNCCNc2ncnc3c2cnn3-c2ccccc2)cc1",
    "growth": "100% (inactive)"
  },
  {
    "COMPOUND": "CSc1nc2c(c(=O)[nH]1)C(c1ccc(C)cc1)C=C(C(=O)O)N2 (stereo not given)",
    "growth": "106% (inactive)"
  },
  {
    "COMPOUND": "COC(=O)c1cc2cc(-c3ccc(OC)cc3)cnc2[nH]1",
    "growth": "44% (inactive)"
  },
  {
    "COMPOUND": "COc1cc2c(cc1O)CCN1C[C@@H](CC(C)C)[C@@H](O)C[C@@H]21",
    "growth": "103% (inactive)"
  },
  {
    "COMPOUND": "CCN1C(=O)N(CC)C2C1NN=c1s/c(=C\\c3cccnc3)c(=O)n12 (stereo not given)",
    "growth": "42.9% (inactive)"
  },
  {
    "COMPOUND": "Cc1csc(NC(c2ccc(Br)cc2)c2c(C)nc3ccccn23)n1 (stereo not given)",
    "growth": "97.5% (inactive)"
  },
  {
    "COMPOUND": "O=C(O)C1CCCCN1c1nc(Cl)nc(Cl)n1 (stereo not given)",
    "growth": "113% (inactive)"
  },
  {
    "COMPOUND": "CCn1c2ccccc2c2cc(NC(=O)Nc3ccc([N+](=O)[O-])cc3C)ccc21",
    "growth": "31.9% (inactive)"
  },
  {
    "COMPOUND": "C=C1C(=O)O[C@H]2[C@H]1CC/C(Cn1cc(CNC(=O)c3cc4ccccc4[nH]3)nn1)=C\\CC[C@@]1(C)O[C@@H]21",
    "growth": "55.8% (inactive)"
  },
  {
    "COMPOUND": "COc1cccc(/C=C2\\Oc3cc(OCCCN4CCCC4)ccc3C2=O)c1OC",
    "growth": "102% (inactive)"
  },
  {
    "COMPOUND": "CN1CCN(Cc2ccc(NC(=O)c3cncc(C#Cc4cnc(N)c5ccncc45)c3)cc2C(F)(F)F)CC1",
    "growth": "2.28% (active)"
  },
  {
    "COMPOUND": "N#Cc1ccc(N2Cc3ccccc3OC3=C2C(=O)c2c(O)ccc(O)c2C3=O)cc1",
    "growth": "-59.9% (active)"
  },
  {
    "COMPOUND": "COc1cc(-c2nn(-c3cccc(NC(=O)c4ccccc4)c3)cc2-c2ccncc2)ccc1Cl",
    "growth": "32.3% (inactive)"
  },
  {
    "COMPOUND": "COc1ccc(C2C=C(c3ccc(OC)c(OC)c3)N=C3SC=C(C)N32)c(Br)c1 (stereo not given)",
    "growth": "95% (inactive)"
  }
]

====

test system: SK-OV-3 ovarian; experiment: NCI-60 one-dose screen, 48 h (100 = growth as untreated, 0 = no growth, -100 = all killed); conditions: 10 µM unless noted
About 83,000 compounds went through this panel and 20% of them were active in at least one assay; those are over-represented in the sample as a whole.
Listing: growth of selected molecules

[
  {
    "MOLECULE": "O=S(=O)(NCCCNc1nccc(-n2ccc3cccnc32)n1)c1cccc(C(F)(F)F)c1",
    "ASSAYED_TARGET": "SK-OV-3 ovarian",
    "growth [%]": 112
  },
  {
    "MOLECULE": "CCCCOc1ccc(/C=C2/SC(N3CCOCC3)=NC2=O)cc1OCC",
    "ASSAYED_TARGET": "SK-OV-3 ovarian",
    "growth [%]": -16.1
  },
  {
    "MOLECULE": "C/C(=N/NC(=S)Nc1ccccc1)c1nc2ccc(Cl)cc2[nH]1",
    "ASSAYED_TARGET": "SK-OV-3 ovarian",
    "growth [%]": -17.7
  },
  {
    "MOLECULE": "CCOC(=O)C1CCNC(=O)C1=O (configuration not stated)",
    "ASSAYED_TARGET": "SK-OV-3 ovarian",
    "growth [%]": 117
  },
  {
    "MOLECULE": "CC(C)(C)Nc1c(-c2cccs2)nc2ncccn12",
    "ASSAYED_TARGET": "SK-OV-3 ovarian",
    "growth [%]": 99.9
  },
  {
    "MOLECULE": "COc1ccc(C(=O)N2NC(=O)/C(=C/c3ccc(F)cc3)N=C2c2ccccc2)cc1",
    "ASSAYED_TARGET": "SK-OV-3 ovarian",
    "growth [%]": 103
  },
  {
    "MOLECULE": "Cc1ccc(S(=O)(=O)n2cc(C(=O)C(=O)N3CCOCC3)c3ccccc32)cc1",
    "ASSAYED_TARGET": "SK-OV-3 ovarian",
    "growth [%]": 97.9
  },
  {
    "MOLECULE": "COc1ccc(NC(=O)c2c(Nc3ccc(OC)cc3OC)n[nH]c2N)c(OC)c1",
    "ASSAYED_TARGET": "SK-OV-3 ovarian",
    "growth [%]": 92
  },
  {
    "MOLECULE": "OCc1ncc(-c2ccccc2)s1",
    "ASSAYED_TARGET": "SK-OV-3 ovarian",
    "growth [%]": 99.4
  },
  {
    "MOLECULE": "O=C1/C(=C/c2ccccc2)Oc2ccc(O)c(I)c21",
    "ASSAYED_TARGET": "SK-OV-3 ovarian",
    "growth [%]": 99.6
  },
  {
    "MOLECULE": "CN1CCN(Cc2ccc(NC(=O)c3cncc(C#Cc4cnc(N)c5cnccc45)c3)cc2C(F)(F)F)CC1",
    "ASSAYED_TARGET": "SK-OV-3 ovarian",
    "growth [%]": -26.8
  },
  {
    "MOLECULE": "CC(C)(C)n1cc(-c2ccnc(NCCCNS(=O)(=O)c3ccccc3)c2)c(-c2cccc(O)c2)n1",
    "ASSAYED_TARGET": "SK-OV-3 ovarian",
    "growth [%]": 88.6
  },
  {
    "MOLECULE": "CN(CCCCN(C[C@H]1Cc2ncccc2CN1)[C@H]1CCCc2cccnc21)C1CCC(F)(F)CC1",
    "ASSAYED_TARGET": "SK-OV-3 ovarian",
    "growth [%]": 90.6
  },
  {
    "MOLECULE": "COc1ccc(C2=C(c3cc(OC)c(OC)c(OC)c3)C(=O)CC2)cc1",
    "ASSAYED_TARGET": "SK-OV-3 ovarian",
    "growth [%]": 7.01
  },
  {
    "MOLECULE": "O=C(Nc1ccncc1)C(=O)c1cn(S(=O)(=O)c2ccc(Br)cc2)c2ccccc12",
    "ASSAYED_TARGET": "SK-OV-3 ovarian",
    "growth [%]": 93.9
  },
  {
    "MOLECULE": "Cn1ncc2c(Sc3ccc(Cl)cc3)ncnc21",
    "ASSAYED_TARGET": "SK-OV-3 ovarian",
    "growth [%]": 94.2
  },
  {
    "MOLECULE": "CN(C)c1ncnc2c1ccn2C1OC(CO)C(O)C1O (configuration not stated)",
    "ASSAYED_TARGET": "SK-OV-3 ovarian",
    "growth [%]": 33.7
  },
  {
    "MOLECULE": "Cc1ccc(N2CCN(C(C)C(N)=O)CC2)cc1 (configuration not stated)",
    "ASSAYED_TARGET": "SK-OV-3 ovarian",
    "growth [%]": 114
  },
  {
    "MOLECULE": "O=C(CCl)N(C1CCCCC1)C1CCCCC1",
    "ASSAYED_TARGET": "SK-OV-3 ovarian",
    "growth [%]": 117
  },
  {
    "MOLECULE": "O=C1c2c(Cl)c(Cl)c(Cl)c(Cl)c2C(=O)C2(Cl)CC=CCC12Cl (configuration not stated)",
    "ASSAYED_TARGET": "SK-OV-3 ovarian",
    "growth [%]": 105
  },
  {
    "MOLECULE": "CC(C)C(C(=O)NCCN1CCOCC1)N1C(=O)/C(=C/c2ccc(Br)cc2)SC1=S (configuration not stated)",
    "ASSAYED_TARGET": "SK-OV-3 ovarian",
    "growth [%]": 112
  },
  {
    "MOLECULE": "Nc1nnc(-c2ccc3ccccc3c2O)o1",
    "ASSAYED_TARGET": "SK-OV-3 ovarian",
    "growth [%]": 105
  }
]
